- TGT: Mitogen-activated protein kinase 14 (Homo sapiens, UniProt Q16539)
- Sequence (Q16539 whole entry): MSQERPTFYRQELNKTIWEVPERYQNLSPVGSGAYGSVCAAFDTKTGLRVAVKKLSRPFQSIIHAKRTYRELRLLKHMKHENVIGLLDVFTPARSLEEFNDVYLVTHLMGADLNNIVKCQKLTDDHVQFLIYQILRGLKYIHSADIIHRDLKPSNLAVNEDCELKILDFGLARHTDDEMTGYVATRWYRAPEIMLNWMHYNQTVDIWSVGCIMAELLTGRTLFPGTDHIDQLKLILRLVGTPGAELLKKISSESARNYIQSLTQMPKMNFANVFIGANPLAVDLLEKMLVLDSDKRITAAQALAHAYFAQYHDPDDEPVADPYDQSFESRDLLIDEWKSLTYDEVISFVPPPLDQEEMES
- PROTOCOL_DESCRIPTION: Inhibition of p38 alpha activity by ELISA
pIC50: −log10 of the molar value.

{"COMPOUND": "COc1c(C#N)cc(C(C)(C)C)cc1NC(=O)C(=O)c1ccc(-c2cccnc2)c2ccccc12", "pIC50": 7.11}
{"COMPOUND": "COc1c(Cl)cc(C(C)(C)C)cc1NC(=O)C(=O)c1ccc(OCCN2CCOCC2)c2ccccc12", "pIC50": 7.15}
{"COMPOUND": "N#Cc1cc(NC(=O)C(=O)c2ccc(OCCN3CCOCC3)c3ccccc23)cc(N2CCOCC2)c1", "pIC50": 7.55}
{"COMPOUND": "COc1c(NC(=O)C(=O)c2ccc(Nc3ccncc3)c3ccccc23)cc(C(C)(C)C)cc1NS(C)(=O)=O", "pIC50": 7.60}
{"COMPOUND": "COc1c(NC(=O)C(=O)c2ccc(OCCN3CCOCC3)c3ccccc23)cc(C(C)(C)C)cc1C(=O)NC1CC1", "pIC50": 7.15}
{"COMPOUND": "COc1c(NC(=O)Cc2ccc(OCCN3CCOCC3)c3ccccc23)cc(C(C)(C)C)cc1NS(C)(=O)=O", "pIC50": 6.72}
{"COMPOUND": "COc1c(C#N)cc(C(C)(C)C)cc1NC(=O)C(=O)c1ccc(-c2ccncc2)c2ccccc12", "pIC50": 7.22}
{"COMPOUND": "COc1ccc(C(C)(C)C)cc1NC(=O)C(=O)c1ccc(OCCN2CCOCC2)c2ccccc12", "pIC50": 6.60}
{"COMPOUND": "COc1c(NC(=O)C(=O)c2ccc(OCCN3CCOCC3)c3ccccc23)cc(C(C)(C)C)cc1NS(C)(=O)=O [ITX-5061 FREE BASE]", "pIC50": 7.23}
{"COMPOUND": "COc1c(NC(=O)C(=O)c2ccc(Oc3ccnc(N4CCOCC4)n3)c3ccccc23)cc(C(C)(C)C)cc1NS(C)(=O)=O", "pIC50": 7.42}
{"COMPOUND": "CC(C)(C)c1cccc(NC(=O)C(=O)c2ccc(OCCN3CCOCC3)c3ccccc23)c1", "pIC50": 6.60}
{"COMPOUND": "CC(C)(C)c1cc(C#N)cc(NC(=O)C(=O)c2ccc(OCCN3CCOCC3)c3ccccc23)c1", "pIC50": 7.48}
{"COMPOUND": "COc1c(C#N)cc(C(C)(C)C)cc1NC(=O)C(=O)c1ccc(-c2ccnc(C)c2)c2ccccc12", "pIC50": 7.66}
{"COMPOUND": "COc1c(NC(=O)/C(=N/O)c2ccc(OCCN3CCOCC3)c3ccccc23)cc(C(C)(C)C)cc1NS(C)(=O)=O", "pIC50": 6.70}
{"COMPOUND": "COc1c(NC(=O)C(=O)c2ccc(Nc3ccncn3)c3ccccc23)cc(C(C)(C)C)cc1NS(C)(=O)=O", "pIC50": 7.14}
{"COMPOUND": "COc1c(C#N)cc(C(C)(C)C)cc1NC(=O)C(=O)c1ccc(Nc2ccncc2)c2ccccc12", "pIC50": 7.29}
{"COMPOUND": "COc1c(NC(=O)C(O)c2ccc(OCCN3CCOCC3)c3ccccc23)cc(C(C)(C)C)cc1NS(C)(=O)=O (centres undefined)", "pIC50": 6.41}
{"COMPOUND": "COc1c(C#N)cc(C(C)(C)C)cc1NC(=O)C(=O)c1ccc(-c2ccc(F)nc2)c2ccccc12", "pIC50": 6.72}
{"COMPOUND": "COc1c(C#N)cc(C(C)(C)C)cc1NC(=O)C(=O)c1ccc(OCCN2CCOCC2)c2ccccc12", "pIC50": 7.38}

* * *

The reader will find reported Tmax values listed item by item below.
- PROTOCOL_DESCRIPTION: Tmax in rat at 10 mg/kg, iv or 30 mg/kg, po
- Assay type: ADME, organism-based
- REPORTED_CONDITIONS: in vivo

{"COMPOUND": "COc1c(NC(=O)C(=O)c2ccc(OCCN3CCOCC3)c3ccccc23)cc(C(C)(C)C)cc1NS(C)(=O)=O [ITX-5061 FREE BASE]", "UNIT_INFO": "h", "Tmax": 3}
{"COMPOUND": "COc1c(C#N)cc(C(C)(C)C)cc1NC(=O)C(=O)c1ccc(OCCN2CCOCC2)c2ccccc12", "UNIT_INFO": "h", "Tmax": 0.5}

* * *

Listed next: entries and their corresponding AUC.
- PROTOCOL_DESCRIPTION: AUC in rat at 10 mg/kg, iv or 30 mg/kg, po
- Assay type: ADME, organism-based
- REPORTED_CONDITIONS: plasma

{"COMPOUND": "COc1c(C#N)cc(C(C)(C)C)cc1NC(=O)C(=O)c1ccc(OCCN2CCOCC2)c2ccccc12", "UNIT_INFO": "ng·h/mL", "AUC": 15000}
{"COMPOUND": "COc1c(NC(=O)C(=O)c2ccc(OCCN3CCOCC3)c3ccccc23)cc(C(C)(C)C)cc1NS(C)(=O)=O [ITX-5061 FREE BASE]", "UNIT_INFO": "ng·h/mL", "AUC": 14000}

* * *

Measured IC50 by item
- TGT: Mitogen-activated protein kinase 14 (Homo sapiens)
- PROTOCOL_DESCRIPTION: Inhibition of phospho-p38 alpha activity by ELISA

{"COMPOUND": "COc1c(NC(=O)Cc2ccc(OCCN3CCOCC3)c3ccccc23)cc(C(C)(C)C)cc1NS(C)(=O)=O", "TGT": "Mitogen-activated protein kinase 14 (Homo sapiens)", "IC50 (nM)": 90}
{"COMPOUND": "CNc1nccc(Nc2ccc(C(=O)C(=O)Nc3cc(C(C)(C)C)cc(NS(C)(=O)=O)c3OC)c3ccccc23)n1", "TGT": "Mitogen-activated protein kinase 14 (Homo sapiens)", "IC50 (nM)": 21}
{"COMPOUND": "CC(C)(C)c1cccc(NC(=O)C(=O)c2ccc(OCCN3CCOCC3)c3ccccc23)c1", "TGT": "Mitogen-activated protein kinase 14 (Homo sapiens)", "IC50 (nM)": 310}
{"COMPOUND": "COc1c(NC(=O)C(=O)c2ccc(OCCN3CCOCC3)c3ccccc23)cc(C(C)(C)C)cc1C(=O)NC1CC1", "TGT": "Mitogen-activated protein kinase 14 (Homo sapiens)", "IC50 (nM)": 140}
{"COMPOUND": "COc1c(NC(=O)C(=O)c2ccc(Nc3ccncn3)c3ccccc23)cc(C(C)(C)C)cc1NS(C)(=O)=O", "TGT": "Mitogen-activated protein kinase 14 (Homo sapiens)", "IC50 (nM)": 1}
{"COMPOUND": "COc1c(NC(=O)C(=O)c2ccc(Oc3ccnc(N4CCOCC4)n3)c3ccccc23)cc(C(C)(C)C)cc1NS(C)(=O)=O", "TGT": "Mitogen-activated protein kinase 14 (Homo sapiens)", "IC50 (nM)": 13}
{"COMPOUND": "COc1c(NC(=O)C(=O)c2ccc(OCCN3CCOCC3)c3ccccc23)cc(C(C)(C)C)cc1NS(C)(=O)=O [ITX-5061 FREE BASE]", "TGT": "Mitogen-activated protein kinase 14 (Homo sapiens)", "IC50 (nM)": 38}
{"COMPOUND": "COc1c(NC(=O)C(=O)c2ccc(Nc3ccncc3)c3ccccc23)cc(C(C)(C)C)cc1NS(C)(=O)=O", "TGT": "Mitogen-activated protein kinase 14 (Homo sapiens)", "IC50 (nM)": 2}

The reported numbers originate from ChEMBL document CHEMBL1208791.
